meta.source: PubChem BioAssay (NCI)

System: HOP-92 NSCLC
TEST_DETAILS: NCI tumour cell line growth inhibition, 48 h
TGI values for the compounds below.

compound=COc1ccc2nc(N/N=C(\C)c3ccccn3)cc(C)c2c1 result="2.55 µM"

May I ask what TGI has been recorded for COc1ccc2[nH]c(C(=O)N3CC(CCl)c4ccc(N)cc43)cc2c1 (stereo not given) ? > 100 µM

Reported TGI, compound COC(=O)CCCc1ccc2c(c1)CC1(C2)Cc2cc3c(cc2C1)CCCC3 : ____ 85.1 µM

I would be grateful if you could share the reported TGI for CCOc1cc2ncc(C#N)c(Nc3ccc(OCc4cccc(F)c4)c(Cl)c3)c2cc1NC(=O)CC1CCSS1 (stereo not given) . > 25 µM

Requested read-out: TGI. Entry: Cc1cc(-c2ncc(CC(=O)Nc3ccc(-c4cnccn4)cn3)cc2C)ccn1 81.8 µM

If you can, please state the reported TGI value of COc1cccc(N2C(=O)C3c4[nH]c5ccccc5c4C4c5ccccc5CCC4C3C2=O)c1 (stereo not given) . > 10 µM

So what's the measured TGI for this one? CSc1nc(NC2CCCC2)c2cc[nH]c2n1 > 100 µM

Value lookup for TGI; key = CC(C)Oc1c(-c2c(OC(C)C)c(=O)c2=O)c(=O)c1=O > 100 µM

What value of TGI has been reported for the following compound? CCC1C(=O)C[C@H]2[C@@H]3C(O)CC4=CC(=O)CC[C@]4(C)[C@H]3CC[C@]12C (stereo not given in full) > 50 µM

I'd like to know its TGI. The compound in question is CN(C)C(=S)N/N=C\C=N/NC(=S)N(C)C > 100 µM

###

Tested on: RXF 393 renal
TEST_DETAILS: NCI tumour cell line growth inhibition, 48 h; in the data active = GI50 below about 0.43 µM; inactive = the rest
# valid calls are active, inactive; nothing else

Before answering, review these 3 worked examples.
compound=Cc1ccc(CNc2c3ccccc3nc3ccccc23)cc1 measured_on="RXF 393 renal" class=inactive
compound=O=C(NNc1nc(Cl)nc(N2CCN(C(c3ccccc3)c3ccccc3)CC2)n1)c1ccccc1 measured_on="RXF 393 renal" class=inactive
compound=COc1cc2c3c(n(C)c(=O)c2cc1OC)-c1cc2c(cc1/C3=C\CCCCCN)OCO2 measured_on="RXF 393 renal" class=inactive

Could you please tell me the result logged for COc1cc(O)c([C@@H]2C[C@H](CCc3ccc(O)cc3)O[C@H](c3ccc(O)cc3)C2)c(O)c1C(=O)/C=C/c1ccc(O)cc1 in this assay? inactive

What did the test return for CCOc1cc2ncc(C#N)c(Nc3ccc(OCc4cccc(F)c4)c(Cl)c3)c2cc1NC(=O)CC1CCSS1 (centres undefined) ? inactive

Short answer needed: outcome of this test for CCOC(=O)c1ccc(NC(=O)N2CC(C)OC(C)C2)cc1 (centres undefined) ? inactive

Given CNC(P(=O)([O-])[O-])P(=O)([O-])[O-].N.N.[Pt+2] , state the outcome it received in this test. inactive

Which outcome did this test record for the compound COc1ccc(-c2nn3ncccc3c2-c2ccnc(Nc3ccc(Cl)c(C(F)(F)F)c3)n2)cc1 ? inactive

Entry COc1cc(/C(C#N)=C/c2ccc3c(c2OC)OCO3)cc2c1OCO2 : call = ? active

###

Entries and their TGI
Tested on: MDA-MB-231 breast
TEST_DETAILS: NCI tumour cell line growth inhibition, 48 h
Write the answer as a number in µM, unit excluded.

chemical_structure=N#Cc1c(-c2nc3ccccc3s2)c(=O)oc2cc(O)ccc12 result=82.5

Quick one: TGI of Cn1ccnc1S/C(=C\C=C(C#N)C#N)c1ccc(Cl)cc1 ? 15

For the compound shown here, O=[N+]([O-])c1ccc(C(c2c[nH]c3ccccc23)c2c[nH]c3ccccc23)cc1 , give the reported TGI. 29.3

Endpoint output: TGI of COc1cc(O)c([C@@H]2C[C@H](CCc3ccc(O)cc3)O[C@H](c3ccc(O)cc3)C2)c(O)c1C(=O)/C=C/c1ccc(O)cc1 . Value? 6.23

Look up TGI: COc1ccc2cc(C(=O)/C=C/c3cc(OC)c(OC)c(OC)c3)ccc2c1 15.8
